Cited source: ChEMBL document CHEMBL3044802

System: Kluyveromyces marxianus
run.description: Antimicrobial activity against Kluyveromyces marxianus after overnight incubation by conventional agar-dilution method
Assay type: functional
Collected MIC values appear next to each entry.
assay.metric: MIC (mg/L)

C=CCOc1ccc(/C=C/C(=O)c2cccc(CC=C)c2O)cc1OC :: 512
C=CCOc1c(OC)cccc1-c1cc(=O)c2cccc(CC=C)c2o1 :: 512
C=CCOc1c(/C=C/C(=O)c2cccc(CC=C)c2O)cccc1OC :: 512
OC(Cn1cncn1)(Cn1cncn1)c1ccc(F)cc1F [FLUCONAZOLE] :: 4

----------
Test system: Staphylococcus aureus
run.description: Antimicrobial activity against Staphylococcus aureus after overnight incubation by conventional agar dilution method
Format: functional
assay.metric: MIC

Cc1cc(NS(=O)(=O)c2ccc(N)cc2)no1 :: 4 µg/mL
C=CCOc1ccc(/C=C/C(=O)c2cccc(CC=C)c2O)cc1OC :: > 1000 µg/mL
C=CCOc1c(/C=C/C(=O)c2cccc(CC=C)c2O)cccc1OC :: > 1000 µg/mL
C=CCOc1ccc(-c2cc(=O)c3cccc(CC=C)c3o2)cc1OC :: > 1000 µg/mL
C=CCOc1c(OC)cccc1-c1cc(=O)c2cccc(CC=C)c2o1 :: > 1000 µg/mL

----------
Collected IC50 values appear next to each entry.
Tested on: Radical scavenging activity
run.description: Antioxidant activity assessed as DPPH free radical scavenging activity after 30 min by UV-VIS spectrophotometer analysis
Assay type: functional
assay.metric: IC50 (µM)

C=CCOc1ccc(/C=C/C(=O)c2cccc(CC=C)c2O)cc1OC :: 85
Cc1c(C)c2c(c(C)c1O)CCC(C)(C(=O)O)O2 (stereo not given) [TROLOX] :: 36
C=CCOc1c(/C=C/C(=O)c2cccc(CC=C)c2O)cccc1OC :: 163
C=CCOc1c(OC)cccc1-c1cc(=O)c2cccc(CC=C)c2o1 :: 320
C=CCOc1ccc(-c2cc(=O)c3cccc(CC=C)c3o2)cc1OC :: 270
